test system: Ramos-2G6-4C10 (Burkitt's Lymphoma); test: Bliss excess, mean over the matrix (fraction); higher = more synergy;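 note: after 72 h of two-drug dosing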
The compounds listed here are annotated with their Bliss excess.

Compound	Study Target	Bliss excess
CN(CCO)CC[C@H](CSc1ccccc1)Nc1ccc(S(=O)(=O)NC(=O)c2ccc(N3CCC([C@@H](O)c4ccccc4-c4ccc(Cl)cc4)CC3)cc2)cc1S(=O)(=O)C(F)(F)F [AZD4320] + C[C@@H](Nc1cc(F)cc(F)c1)c1cc(C(=O)N(C)C)cc2c(=O)cc(N3CCOCC3)oc12 [AZD8186] (first compound max 1 µM, 7x7, partner max 3 µM)	Ramos-2G6-4C10 (Burkitt's Lymphoma)	0.175
CCN(CCO)CCCOc1ccc2c(Nc3cc(CC(=O)Nc4cccc(F)c4)[nH]n3)ncnc2c1 [AZD2811] + C[C@@H]1COCCN1C2=NC(=NC(=C2)C3(CC3)[S@](=N)(=O)C)C4=C5C=CNC5=NC=C4 [AZD6738] (first compound max 1 µM, 7x7, partner max 10 µM)	Ramos-2G6-4C10 (Burkitt's Lymphoma)	-0.0008
CC1(C)CCC(CN2CCN(c3ccc(C(=O)NS(=O)(=O)c4ccc(NCC5CCOCC5)c([N+](=O)[O-])c4)c(Oc4cnc5[nH]ccc5c4)c3)CC2)=C(c2ccc(Cl)cc2)C1 [Venetoclax] + Cc1cc2ncnn2cc1Nc1ncc2c(n1)n(C1CCOCC1)c(=O)n2C [AZD7648] (first compound max 1 µM, 7x7, partner max 10 µM)	Ramos-2G6-4C10 (Burkitt's Lymphoma)	0.0435

###

tested on: HCC-78 (Lung Adenocarcinoma); assay: combination Emax (second highest fraction inhibited in the dose matrix, 72 h); higher = more inhibition; extreme values may be limits of the assay

Compound	combination Emax
N#Cc1cnc(Nc2cc(NC[C@H]3CNCCO3)c(C(F)(F)F)cn2)cn1 [SRA737] + O=c1[nH]cc(F)c(=O)[nH]1 [5-Fluorouracil] (first compound max 10 µM, 7x7, partner max 20 µM)	0.819
C=CCn1c(=O)c2cnc(Nc3ccc(N4CCN(C)CC4)cc3)nc2n1-c1cccc(C(C)(C)O)n1 [AZD1775] + Nc1ccn([C@@H]2O[C@H](CO)[C@@H](O)C2(F)F)c(=O)n1 [Gemcitabine] (first compound max 1 µM, partner max 0.3 µM)	0.851
CC1(C)CCC(CN2CCN(c3ccc(C(=O)NS(=O)(=O)c4ccc(NCC5CCOCC5)c([N+](=O)[O-])c4)c(Oc4cnc5[nH]ccc5c4)c3)CC2)=C(c2ccc(Cl)cc2)C1 [Venetoclax] + CN(C)CCCOc1ccc(-c2ccc3ncc4c(c3c2)n(C2CCOCC2)c(=O)n4C)cn1 [AZD0156] (first compound max 1 µM, 7x7, partner max 1 µM)	0.181
C[C@@H](Oc1cc(-c2cnn(C3CCNCC3)c2)cnc1N)c1c(Cl)ccc(F)c1Cl [Crizotinib] + CC1=C(C(=CC=C1)Cl)NC(=O)C2=CN=C(S2)NC3=CC(=NC(=N3)C)N4CCN(CC4)CCO [Dasatinib] (first compound max 10 µM, 7x7, partner max 2 µM)	0.754
CC1(C)CCC(CN2CCN(c3ccc(C(=O)NS(=O)(=O)c4ccc(NCC5CCOCC5)c([N+](=O)[O-])c4)c(Oc4cnc5[nH]ccc5c4)c3)CC2)=C(c2ccc(Cl)cc2)C1 [Venetoclax] + C[C@@H]1COCCN1C2=NC(=NC(=C2)C3(CC3)[S@](=N)(=O)C)C4=C5C=CNC5=NC=C4 [AZD6738] (first compound max 1 µM, 7x7, partner max 10 µM)	0.661
Cc1c2c(nn1C)CSCc1cc(n(C)n1)CSc1cc(c3ccccc3c1)OCCCc1c(C(=O)O)n(C)c3c-2c(Cl)ccc13 [AZD5991] + CN(C)CCCOc1ccc(-c2ccc3ncc4c(c3c2)n(C2CCOCC2)c(=O)n4C)cn1 [AZD0156] (first compound max 1 µM, 7x7, partner max 1 µM)	0.211
Cc1cc2ncnn2cc1Nc1ncc2c(n1)n(C1CCOCC1)c(=O)n2C [AZD7648] + CN(C)CCCOc1ccc(-c2ccc3ncc4c(c3c2)n(C2CCOCC2)c(=O)n4C)cn1 [AZD0156] (first compound max 10 µM, 7x7, partner max 1 µM)	0.263
COc1cccc(OCCCN)c1-c1cc(Nc2cnc(C#N)cn2)n[nH]1 [Prexasertib] + CCc1c2c(nc3ccc(O)cc13)-c1cc3c(c(=O)n1C2)COC(=O)[C@]3(O)CC [SN-38] (first compound max 1 µM, 7x7, partner max 0.3 µM)	0.947
CN(CCO)CC[C@H](CSc1ccccc1)Nc1ccc(S(=O)(=O)NC(=O)c2ccc(N3CCC([C@@H](O)c4ccccc4-c4ccc(Cl)cc4)CC3)cc2)cc1S(=O)(=O)C(F)(F)F [AZD4320] + CCN(CCO)CCCOc1ccc2c(Nc3cc(CC(=O)Nc4cccc(F)c4)[nH]n3)ncnc2c1 [AZD2811] (first compound max 1 µM, 7x7, partner max 1 µM)	0.2
Cc1c2c(nn1C)CSCc1cc(n(C)n1)CSc1cc(c3ccccc3c1)OCCCc1c(C(=O)O)n(C)c3c-2c(Cl)ccc13 [AZD5991] + C1CN(CCC1(C(=O)N[C@@H](CCO)C2=CC=C(C=C2)Cl)N)C3=NC=NC4=C3C=CN4 [Capivasertib] (first compound max 1 µM, 7x7, partner max 3 µM)	0.228
C[C@@H](Oc1cc(-c2cnn(C3CCNCC3)c2)cnc1N)c1c(Cl)ccc(F)c1Cl [Crizotinib] + Cn1cnc2c(F)c(Nc3ccc(Br)cc3Cl)c(C(=O)NOCCO)cc21 [Selumetinib] (first compound max 10 µM, 7x7, partner max 10 µM)	0.637
C[C@@H]1COCCN1c1cc(C2([S@](C)(=N)=O)CC2)nc(-c2ccnc3[nH]ccc23)n1 [AZD6738] + Nc1ccn([C@@H]2O[C@H](CO)[C@@H](O)C2(F)F)c(=O)n1 [Gemcitabine] (first compound max 10 µM, 7x7, partner max 0.3 µM)	0.901
CN(CCO)CC[C@H](CSc1ccccc1)Nc1ccc(S(=O)(=O)NC(=O)c2ccc(N3CCC([C@@H](O)c4ccccc4-c4ccc(Cl)cc4)CC3)cc2)cc1S(=O)(=O)C(F)(F)F [AZD4320] + Cc1cc2ncnn2cc1Nc1ncc2c(n1)n(C1CCOCC1)c(=O)n2C [AZD7648] (first compound max 1 µM, 7x7, partner max 10 µM)	0.175

###

tested on: HOS (Osteosarcoma); experiment: combination Emax (second highest fraction inhibited in the dose matrix, 72 h); higher = more inhibition; extreme values may be limits of the assay
Rule: combination Emax of 0.5 or more gives label 1; anything lower gives label 0.

Compound	Study Target	Class Label
Cc1cc2ncnn2cc1Nc1ncc2c(n1)n(C1CCOCC1)c(=O)n2C [AZD7648] + C[C@@H]1COCCN1C2=NC(=NC(=C2)C3(CC3)[S@](=N)(=O)C)C4=C5C=CNC5=NC=C4 [AZD6738] (first compound max 10 µM, 7x7, partner max 10 µM)	HOS (Osteosarcoma)	label 1
NC1(C(=O)N[C@@H](CCO)c2ccc(Cl)cc2)CCN(c2ncnc3[nH]ccc23)CC1 [Capivasertib] + COc1nnc2ccc(N3CCC(c4ccc(OCCN5CCN(C)C(=O)[C@H]5C)cc4)CC3)nn12 [AZD5153] (first compound max 10 µM, 7x7, partner max 1 µM)	HOS (Osteosarcoma)	label 1
Cc1nc(-c2cn3c(n2)-c2ccc(-c4cnn(C(C)(C)C(N)=O)c4)cc2OCC3)n(C(C)C)n1 [Taselisib] + O=C(Nc1ccc2[nH]nc(-c3ccncc3)c2c1)[C@@H]1CCN(CC(=O)N2CCN(c3ccc(-c4ncccn4)cc3)CC2)C1 [SCH772984] (first compound max 10 µM, 7x7, partner max 5 µM)	HOS (Osteosarcoma)	label 1
C[C@@H]1COCCN1c1cc(C2([S@](C)(=N)=O)CC2)nc(-c2ccnc3[nH]ccc23)n1 [AZD6738] + C1CC(C1)(C(=O)[O-])C(=O)[O-].N.N.[Pt+2] [Carboplatin] (first compound max 10 µM, 7x7, partner max 10 µM)	HOS (Osteosarcoma)	label 1
CN(CCO)CC[C@H](CSc1ccccc1)Nc1ccc(S(=O)(=O)NC(=O)c2ccc(N3CCC([C@@H](O)c4ccccc4-c4ccc(Cl)cc4)CC3)cc2)cc1S(=O)(=O)C(F)(F)F [AZD4320] + Cn1cnc2c(F)c(Nc3ccc(Br)cc3Cl)c(C(=O)NOCCO)cc21 [Selumetinib] (first compound max 1 µM, 7x7, partner max 3 µM)	HOS (Osteosarcoma)	label 0
CC(=O)c1c(C)c2cnc(Nc3ccc(N4CCNCC4)cn3)nc2n(C2CCCC2)c1=O [Palbociclib] + Cn1cnc2c(F)c(Nc3ccc(Br)cc3Cl)c(C(=O)NOCCO)cc21 [Selumetinib] (first compound max 10 µM, 7x7, partner max 10 µM)	HOS (Osteosarcoma)	label 0
C[C@@H](c1ccc2nccn2c1)n1nnc2ncc(-c3cnn(C)c3)nc21 [Savolitinib] + Cc1c2c(nn1C)CSCc1cc(n(C)n1)CSc1cc(c3ccccc3c1)OCCCc1c(C(=O)O)n(C)c3c-2c(Cl)ccc13 [AZD5991] (first compound max 1 µM, 7x7, partner max 1 µM)	HOS (Osteosarcoma)	label 0
COc1cccc(OCCCN)c1-c1cc(Nc2cnc(C#N)cn2)n[nH]1 [Prexasertib] + C[C@@H]1COCCN1C2=NC(=NC(=C2)C3(CC3)[S@](=N)(=O)C)C4=C5C=CNC5=NC=C4 [AZD6738] (first compound max 1 µM, 7x7, partner max 10 µM)	HOS (Osteosarcoma)	label 1
Cc1c2c(nn1C)CSCc1cc(n(C)n1)CSc1cc(c3ccccc3c1)OCCCc1c(C(=O)O)n(C)c3c-2c(Cl)ccc13 [AZD5991] + Nc1ccn([C@@H]2O[C@H](CO)[C@@H](O)C2(F)F)c(=O)n1 [Gemcitabine] (first compound max 1 µM, 7x7, partner max 0.3 µM)	HOS (Osteosarcoma)	label 1
COc1nnc2ccc(N3CCC(c4ccc(OCCN5CCN(C)C(=O)[C@H]5C)cc4)CC3)nn12 [AZD5153] + Cn1cnc2c(F)c(Nc3ccc(Br)cc3Cl)c(C(=O)NOCCO)cc21 [Selumetinib] (first compound max 1 µM, 7x7, partner max 10 µM)	HOS (Osteosarcoma)	label 1
CS(=O)(=O)CCNCc1ccc(-c2ccc3ncnc(Nc4ccc(OCc5cccc(F)c5)c(Cl)c4)c3c2)o1 [Lapatinib] + NC1(c2ccc(-c3nc4ccn5c(=O)[nH]nc5c4cc3-c3ccccc3)cc2)CCC1 [MK-2206] (first compound max 10 µM, 7x7, partner max 10 µM)	HOS (Osteosarcoma)	label 1
CC1(C)CCC(CN2CCN(c3ccc(C(=O)NS(=O)(=O)c4ccc(NCC5CCOCC5)c([N+](=O)[O-])c4)c(Oc4cnc5[nH]ccc5c4)c3)CC2)=C(c2ccc(Cl)cc2)C1 [Venetoclax] + CS(=O)(=O)CCNCc1ccc(-c2ccc3ncnc(Nc4ccc(OCc5cccc(F)c5)c(Cl)c4)c3c2)o1 [Lapatinib] (first compound max 1 µM, 7x7, partner max 10 µM)	HOS (Osteosarcoma)	label 0
CC1(C)CCC(CN2CCN(c3ccc(C(=O)NS(=O)(=O)c4ccc(NCC5CCOCC5)c([N+](=O)[O-])c4)c(Oc4cnc5[nH]ccc5c4)c3)CC2)=C(c2ccc(Cl)cc2)C1 [Venetoclax] + COc1cc(Nc2ncc3c(n2)-c2ccc(Cl)cc2C(c2c(F)cccc2OC)=NC3)ccc1C(=O)O [Alisertib] (first compound max 1 µM, 7x7, partner max 10 µM)	HOS (Osteosarcoma)	label 0

Hello, the source for this data is the supplement of paper PMC11061612, in case you need it.
